Measured values drawn from paper PMC9794833 for this set.

- tested_target: NMU2 (Homo sapiens, UniProt Q9GZQ4)
- Construct: HA signal peptide (N); expressed in transfected cells; host or cells: HEK 293F
- Sequence (Q9GZQ4 whole entry): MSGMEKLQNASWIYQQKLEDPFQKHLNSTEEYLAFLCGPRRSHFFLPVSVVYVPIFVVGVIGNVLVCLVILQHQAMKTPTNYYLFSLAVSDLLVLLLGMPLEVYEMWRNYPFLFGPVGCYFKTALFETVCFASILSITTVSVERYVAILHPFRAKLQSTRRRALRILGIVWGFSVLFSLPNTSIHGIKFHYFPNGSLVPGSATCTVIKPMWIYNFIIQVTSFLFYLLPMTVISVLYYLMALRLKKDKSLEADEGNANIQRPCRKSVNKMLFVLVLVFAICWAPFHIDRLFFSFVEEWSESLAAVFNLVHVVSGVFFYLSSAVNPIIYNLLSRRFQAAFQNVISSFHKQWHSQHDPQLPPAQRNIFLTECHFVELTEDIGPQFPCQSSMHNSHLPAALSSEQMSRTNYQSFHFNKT
- test: TRUPATH Gαi1βγ biosensor assay, WT NMU2
- Format: cell-based
- condition_notes: WT; agonist-induced G protein activation, HEK 293F; read-out: EC50
Where no end group is shown, it is not given here.
measurement_kind: EC50 (nM)
# unit: nM | format: bare number

Recorded EC50 (substance FRVDEEFQSPFASQSRGYFLFRPRN-NH2 [NmU-25] ): 34

====

- tested_target: NMU2 E102A (Homo sapiens, UniProt Q9GZQ4, E102A)
- Construct: HA signal peptide (N); expressed in transfected cells; host or cells: HEK 293F
- test: IP accumulation assay, NMU2 mutant E102A
- Type: cell-based
- condition_notes: IP accumulation, read-out: EC50, NmU-25 alone
Where no end group is shown, it is not given here.
measurement_kind: EC50 (nM)
All answers are understood in nM, so give the number only.

Reported EC50 (NMU2 E102A (Homo sapiens, UniProt Q9GZQ4, E102A)) for entry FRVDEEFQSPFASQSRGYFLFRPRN-NH2 [NmU-25] is 1700

====

- tested_target: NMU2 N306Q (Homo sapiens, UniProt Q9GZQ4, N306Q)
- Construct: HA signal peptide (N); expressed in transfected cells; host or cells: HEK 293F
- Sequence (Q9GZQ4 whole entry N306Q): as the sequence (Q9GZQ4 whole entry) above, with N306Q counted along it
- test: TRUPATH assay, NMU2 mutant N306Q
- Type: cell-based
- condition_notes: read-out: EC50
Where no end group is shown, it is not given here.
measurement_kind: pEC50
Keep in mind that pEC50 stands for -log10 of concentration in molar terms.

Just so you know, measured pEC50 for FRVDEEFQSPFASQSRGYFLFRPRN-NH2 [NmU-25] came out at 6.33

====

- tested_target: NMU2 F224A (Homo sapiens, UniProt Q9GZQ4, F224A)
- Construct: HA signal peptide (N); expressed in transfected cells; host or cells: HEK 293F, transient transfection, PTT5 vector
- Sequence (Q9GZQ4 whole entry F224A): as the sequence (Q9GZQ4 whole entry) above, with F224A counted along it
- test: IP accumulation assay, NMU2 mutant F224A
- Assay type: cell-based
- condition_notes: IP accumulation, read-out: EC50, NmU-25 alone
Where no end group is shown, it is not given here.
measurement_kind: pEC50
Note: pEC50 values are expressed as the negative base-10 logarithm of concentration in M.

Known value: NMU2 F224A (Homo sapiens, UniProt Q9GZQ4, F224A) pEC50 of the substance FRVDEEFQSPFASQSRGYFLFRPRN-NH2 [NmU-25] equals 7.34

====

- tested_target: NMU2 E127A (Homo sapiens, UniProt Q9GZQ4, E127A)
- Construct: HA signal peptide (N); expressed in transfected cells; host or cells: HEK 293F
- Sequence (Q9GZQ4 whole entry E127A): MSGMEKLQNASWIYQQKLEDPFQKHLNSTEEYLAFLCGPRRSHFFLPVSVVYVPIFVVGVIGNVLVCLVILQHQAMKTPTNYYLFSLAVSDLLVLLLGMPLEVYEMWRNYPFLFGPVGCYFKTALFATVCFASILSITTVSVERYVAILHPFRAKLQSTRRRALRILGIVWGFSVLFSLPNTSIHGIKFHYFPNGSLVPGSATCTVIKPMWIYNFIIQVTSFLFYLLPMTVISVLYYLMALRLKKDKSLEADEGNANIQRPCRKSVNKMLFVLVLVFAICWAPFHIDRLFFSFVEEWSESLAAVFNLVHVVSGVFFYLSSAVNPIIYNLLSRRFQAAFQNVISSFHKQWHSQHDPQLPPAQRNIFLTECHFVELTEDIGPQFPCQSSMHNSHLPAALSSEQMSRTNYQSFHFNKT
- test: IP accumulation assay, NMU2 mutant E127A
- Format: cell-based
- condition_notes: IP accumulation, read-out: EC50, NmU-25 alone
Where no end group is shown, it is not given here.
measurement_kind: EC50 (µM)
Your answer should be a plain number; it is taken to be in µM.

Kindly note the recorded EC50 for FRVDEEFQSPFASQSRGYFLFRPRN-NH2 [NmU-25] , which is 2.14

====

- tested_target: NMU2 W281A (Homo sapiens, UniProt Q9GZQ4, W281A)
- Construct: HA signal peptide (N); expressed in transfected cells; host or cells: HEK 293F
- Sequence (Q9GZQ4 whole entry W281A): as the sequence (Q9GZQ4 whole entry E127A) above, with A127E, W281A counted along it
- test: TRUPATH assay, NMU2 mutant W281A
- Type: cell-based
- condition_notes: read-out: EC50
Where no end group is shown, it is not given here.
measurement_kind: EC50

Entry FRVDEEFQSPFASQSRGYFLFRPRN-NH2 [NmU-25] ; EC50 = 814 nM

====

- tested_target: NMU2 F316A (Homo sapiens, UniProt Q9GZQ4, F316A)
- Construct: HA signal peptide (N); expressed in transfected cells; host or cells: HEK 293F
- test: TRUPATH assay, NMU2 mutant F316A
- Type: cell-based
- condition_notes: read-out: EC50
Where no end group is shown, it is not given here.
measurement_kind: pEC50
pEC50 field: float, defined as -log10 of concentration (mol/L).

So, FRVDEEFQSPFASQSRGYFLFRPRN-NH2 [NmU-25] ? Its pEC50 was 5.87

====

- tested_target: NMU2 E105A (Homo sapiens, UniProt Q9GZQ4, E105A)
- Construct: HA signal peptide (N); expressed in transfected cells; host or cells: HEK 293F
- Sequence (Q9GZQ4 whole entry E105A): as the sequence (Q9GZQ4 whole entry E127A) above, with E105A, A127E counted along it
- test: TRUPATH assay, NMU2 mutant E105A
- Type: cell-based
- condition_notes: E105A; read-out: EC50
Where no end group is shown, it is not given here.
measurement_kind: EC50

Sample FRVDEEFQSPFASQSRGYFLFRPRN-NH2 [NmU-25] ; EC50 observed: 2.48 µM

====

- tested_target: NMU2 F126A (Homo sapiens, UniProt Q9GZQ4, F126A)
- Construct: HA signal peptide (N); expressed in transfected cells; host or cells: HEK 293F
- Sequence (Q9GZQ4 whole entry F126A): as the sequence (Q9GZQ4 whole entry) above, with F126A counted along it
- test: TRUPATH assay, NMU2 mutant F126A
- Type: cell-based
- condition_notes: read-out: EC50
Where no end group is shown, it is not given here.
measurement_kind: pEC50
Lab note: report pEC50 as minus log10 of the concentration in molar units, number only.

Measured pEC50, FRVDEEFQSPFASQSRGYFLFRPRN-NH2 [NmU-25] : 6.20

====

- tested_target: NMU2 H285A (Homo sapiens, UniProt Q9GZQ4, H285A)
- Construct: HA signal peptide (N); expressed in transfected cells; host or cells: HEK 293F, transient transfection, PTT5 vector
- Sequence (Q9GZQ4 whole entry H285A): as the sequence (Q9GZQ4 whole entry E127A) above, with A127E, H285A counted along it
- test: IP accumulation assay, NMU2 mutant H285A
- Format: cell-based
- condition_notes: IP accumulation, read-out: EC50, NmU-25 alone
Where no end group is shown, it is not given here.
measurement_kind: EC50 (nM)
Reply with just the number (in nM).

Lab note: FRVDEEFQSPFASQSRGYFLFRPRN-NH2 [NmU-25] gave EC50 of 214

====

- tested_target: NMU2 F177C (Homo sapiens, UniProt Q9GZQ4, F177C)
- Construct: HA signal peptide (N); expressed in transfected cells; host or cells: HEK 293F, transient transfection, PTT5 vector
- test: IP accumulation assay, NMU2 mutant F177C
- Type: cell-based
- condition_notes: IP accumulation, read-out: EC50, NmU-25 alone
Where no end group is shown, it is not given here.
measurement_kind: pEC50
Quick note: pEC50 values are minus log10 of concentrations in mol/L.

get_value(item= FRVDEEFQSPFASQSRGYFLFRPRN-NH2 [NmU-25] , readout=pEC50) returns 8.15

====

- tested_target: NMU2 F305A (Homo sapiens, UniProt Q9GZQ4, F305A)
- Construct: HA signal peptide (N); expressed in transfected cells; host or cells: HEK 293F
- Sequence (Q9GZQ4 whole entry F305A): as the sequence (Q9GZQ4 whole entry) above, with F305A counted along it
- test: TRUPATH assay, NMU2 mutant F305A
- Format: cell-based
- condition_notes: read-out: EC50
Where no end group is shown, it is not given here.
measurement_kind: pEC50
FYI, pEC50 means -log10 of a concentration in mol per litre.

The substance identified as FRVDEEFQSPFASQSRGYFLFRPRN-NH2 [NmU-25] registered its pEC50 at 5.58

====

- tested_target: NMU2 F131L (Homo sapiens, UniProt Q9GZQ4, F131L)
- Construct: HA signal peptide (N); expressed in transfected cells; host or cells: HEK 293F, transient transfection, PTT5 vector
- Sequence (Q9GZQ4 whole entry F131L): as the sequence (Q9GZQ4 whole entry E127A) above, with A127E, F131L counted along it
- test: IP accumulation assay, NMU2 mutant F131L
- Type: cell-based
- condition_notes: IP accumulation, read-out: EC50, NmU-25 alone
Where no end group is shown, it is not given here.
measurement_kind: EC50 (nM)
The figure you give is taken to be in nM; do not add the unit.

So for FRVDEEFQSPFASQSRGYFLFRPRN-NH2 [NmU-25] , the logged EC50 turned out to be 11
